Values were extracted from PubChem BioAssay (NCI).

Would you mind telling me the reported growth of each entry?
# Tested on: T-47D breast
# method_description: NCI-60 one-dose screen, 48 h (100 = growth as untreated, 0 = no growth, -100 = all killed)
# assay_context: 10 µM unless noted
The panel holds about 83,000 compounds, 20% with a hit somewhere; the sample as a whole holds those more often.
Reply numerically in %, unit not repeated.

Query: I'd like to know its growth. The molecule in question is O=C(CSc1nc2sc3c(c2c(=O)n1-c1ccc(Cl)cc1)CCCC3)NNC(=O)Nc1ccc(Cl)c(C(F)(F)F)c1
Result: -34.2

Query: I'd like to know its growth. The molecule in question is N#Cc1nc(-c2ccccc2)oc1N1CCC(CO)C1 (centres undefined)
Result: 83

Query: I'd like to know its growth. The molecule in question is N#Cc1nc(-c2ccccc2)oc1N1CC[C@@H](CO)C1
Result: 98.1

Query: I'd like to know its growth. The molecule in question is Cn1cc(-c2cc(N)n3nc(-c4cn(C)c5ccc(Cl)cc45)cc3n2)c2cc(Cl)ccc21
Result: 90.7

Query: I'd like to know its growth. The molecule in question is COc1ccc(C(=O)/C=C/c2ccc(OCc3ccc(Cl)cc3)c(OC)c2)cc1OC
Result: 50.6

Query: I'd like to know its growth. The molecule in question is CN(C)CCCOc1c2ccccc2nc2c1oc1ccc(Cl)cc12
Result: 31.2

Query: I'd like to know its growth. The molecule in question is O=C(CSc1nnc(-c2ccc3nc(-c4ccc(Cl)cc4)[nH]c3c2)o1)Nc1ccc(C(=O)/C=C/c2ccc(Cl)cc2)cc1
Result: 87.1

Query: I'd like to know its growth. The molecule in question is c1ccc2c(NCCCN3CCOCC3)c3oc4ccccc4c3nc2c1
Result: 21.1

Query: I'd like to know its growth. The molecule in question is COc1ccc(-c2nc3ccc(-c4nnc(SCC(=O)Nc5ccc(C(=O)/C=C/c6ccc(Cl)cc6)cc5)o4)cc3[nH]2)cc1OC
Result: 89.4

Query: I'd like to know its growth. The molecule in question is N#Cc1nc(-c2ccccc2)oc1S(=O)(=O)N1CCN(CCc2ccccn2)CC1
Result: -24.2

Query: I'd like to know its growth. The molecule in question is COc1ccc(/C=N/NC(=O)c2[nH]c3ccc(Br)cc3c2-c2ccccc2)o1
Result: 78.4

Query: I'd like to know its growth. The molecule in question is Cc1c(Nc2nnc(SCC(=O)Nc3sc4c(c3C#N)CCCC4)s2)c(=O)n(-c2ccccc2)n1C
Result: 97.3

Query: I'd like to know its growth. The molecule in question is N#Cc1c(-c2ccc(Cl)cc2)nc(SCc2ccccc2)nc1N1CCNCC1
Result: 65.6

Query: I'd like to know its growth. The molecule in question is COc1ccc2[nH]cc(-c3cc(N)n4nc(-c5c[nH]c6ccc(OC)cc56)cc4n3)c2c1
Result: -21.7

Query: I'd like to know its growth. The molecule in question is OC1CCc2c(-c3ccc4ncnc(N5CCc6cc(F)c(Cl)cc65)c4c3)cncc21 (centres undefined)
Result: 7.03

Query: I'd like to know its growth. The molecule in question is Cc1cccc(/C=C/c2nn3c(-c4ccco4)nnc3s2)c1
Result: 89.2

Query: I'd like to know its growth. The molecule in question is CCCC(=O)NC(c1cccnc1)c1cc(C)c2cccnc2c1O (centres undefined)
Result: 29.7

Query: I'd like to know its growth. The molecule in question is COc1ccc(/C=C2\SC(=Nc3cc(C)on3)NC2=O)cc1
Result: 104

Query: I'd like to know its growth. The molecule in question is C/C(=C(/c1ccc(Cl)cc1)c1ccc(OCCN)cc1)c1ccc(C)cc1
Result: 96.8

Query: I'd like to know its growth. The molecule in question is CCCCCCNC(=O)Oc1ccc(/C(=C(/C)c2ccccc2)c2ccc(OCCN3CCCCCC3)cc2)cc1
Result: 21.6

Query: I'd like to know its growth. The molecule in question is Cc1ccc(CNS(=O)(=O)/N=C2\NC(=O)NC2=C(Cl)Cl)cc1
Result: 48.7

Query: I'd like to know its growth. The molecule in question is O=C(CN1CCOCC1)NNc1ncnc2ccccc12
Result: 41.6

Query: I'd like to know its growth. The molecule in question is N/C(=N\c1nc2c(Br)cccc2s1)C(Br)Br
Result: 33.1

Query: I'd like to know its growth. The molecule in question is Cc1nc2cnc(N)c(C#Cc3cncc(C(=O)Nc4ccc(Cl)c(C(F)(F)F)c4)c3)c2nc1C
Result: 109

Query: I'd like to know its growth. The molecule in question is NS(=O)(=O)c1cccc(Nc2nc(SCC(=O)c3ccc(Cl)cc3)nc3ccccc23)c1
Result: 63.3

Query: I'd like to know its growth. The molecule in question is Cc1cccc2sc(/N=C(\N)C(Br)Br)nc12
Result: 41.4

Query: I'd like to know its growth. The molecule in question is COc1ccc(Cc2nn(CC(=O)N/N=C/c3ccc(Cl)cc3)c(=O)c3c(C)noc23)cc1
Result: 58.9

Query: I'd like to know its growth. The molecule in question is Clc1ccc2c(NCCCN3CCOCC3)c3oc4ccc(Cl)cc4c3nc2c1
Result: 91.4

Query: I'd like to know its growth. The molecule in question is [Cl][Ru].c1ccc(-c2cc(-c3ccccn3)nc(-c3ccccn3)c2)cc1.c1ccc(-c2ccnc3c2ccc2c(-c4ccccc4)ccnc23)cc1
Result: -11.4

Query: I'd like to know its growth. The molecule in question is O=C(Oc1ccc2ccc(=O)oc2c1)c1ccc(Cl)cc1
Result: 105

Query: I'd like to know its growth. The molecule in question is Cc1nc(-c2cc3ccccc3oc2=O)ccc1C(=O)/C=C/c1ccc(N2CCOCC2)cc1
Result: 80.2

Query: I'd like to know its growth. The molecule in question is COc1cc(-c2nc3ccc(-c4nnc(SCC(=O)Nc5ccc(C(C)=O)cc5)o4)cc3[nH]2)cc(OC)c1OC
Result: 103

Query: I'd like to know its growth. The molecule in question is O=c1/c(=C\c2ccc(-c3ccccc3)o2)sc2nc(-c3ccccc3)nn12
Result: 92.9

Query: I'd like to know its growth. The molecule in question is O=c1[nH]c2ccccc2cc1CSc1ccccc1Nc1nccc(-c2ccc(C(F)(F)F)cc2)n1
Result: 66.7

Query: I'd like to know its growth. The molecule in question is CCOC(=O)c1c(Nc2ccccc2)nn2c(N)c(C#N)c(-c3ccc(Cl)cc3)nc12
Result: 68.5

Query: I'd like to know its growth. The molecule in question is OC1CCN(CCCOc2c3ccc(Cl)cc3nc3c2oc2ccccc23)CC1
Result: 11

Query: I'd like to know its growth. The molecule in question is COc1ccc(C(=O)/C=C/c2ccc(Oc3nc(NCCO)nc(N4CCOCC4)n3)c(OC)c2)cc1
Result: 94.1

Query: I'd like to know its growth. The molecule in question is Clc1ccc2c(NCCCn3ccnc3)c3oc4ccccc4c3nc2c1
Result: 60.1

Query: I'd like to know its growth. The molecule in question is O=c1[nH]c2ccc(Cl)cc2cc1CSc1ccccc1Nc1nccc(-c2ccc(Cl)cc2)n1
Result: 84.8
